target: adenosine 3 receptor (Homo sapiens); assay: Agonist activity against adenosine 3 receptor (CHO cells, forskolin-enhanced cAMP/SPAP reporter); format: cell-based; details: CHO cells transfected with human receptor; forskolin-enhanced cAMP via SPAP; mean of all the versions tested
Sequence (P0DMS8 whole entry): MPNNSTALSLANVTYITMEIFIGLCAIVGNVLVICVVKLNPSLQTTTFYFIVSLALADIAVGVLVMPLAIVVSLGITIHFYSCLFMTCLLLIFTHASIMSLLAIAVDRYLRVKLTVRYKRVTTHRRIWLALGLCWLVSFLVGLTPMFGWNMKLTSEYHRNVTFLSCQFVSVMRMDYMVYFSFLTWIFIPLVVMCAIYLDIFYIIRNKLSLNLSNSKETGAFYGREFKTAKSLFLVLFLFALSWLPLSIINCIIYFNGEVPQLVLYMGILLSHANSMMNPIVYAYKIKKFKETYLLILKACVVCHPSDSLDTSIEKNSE
parameter: A3 EC50 as a ratio of that of NECA

CCn1nnc(C2OC(n3cnc4c(NCc5cccc(I)c5)nc(NC5CCN(Cc6ccccc6)C5)nc43)C(O)C2O)n1.O=CO.O=CO (stereo not drawn) :: >200

May I ask what A3 EC50 as a ratio of that of NECA has been recorded for "CCn1nnc([C@H]2O[C@@H](n3cnc4c(NCCC(C)(C)C)nc(N[C@@H]5CCC[C@H]5O)nc43)[C@H](O)[C@@H]2O)n1.O=C(O)C(F)(F)F.O=C(O)C(F)(F)F" ? >385

And then "CCn1nnc([C@H]2O[C@@H](n3cnc4c(NCCc5ccccc5)nc(NCCc5cn(C)cn5)nc43)[C@H](O)[C@@H]2O)n1.Cl.Cl" , what is it? >244

====

target: adenosine 1 receptor (Homo sapiens, UniProt P30542); experiment: Agonist activity against adenosine 1 receptor (CHO cells, forskolin-enhanced cAMP/SPAP reporter); assay type: cell-based; settings: CHO cells transfected with human receptor; forskolin-enhanced cAMP via SPAP; mean of all the versions tested
Sequence (P30542 whole entry): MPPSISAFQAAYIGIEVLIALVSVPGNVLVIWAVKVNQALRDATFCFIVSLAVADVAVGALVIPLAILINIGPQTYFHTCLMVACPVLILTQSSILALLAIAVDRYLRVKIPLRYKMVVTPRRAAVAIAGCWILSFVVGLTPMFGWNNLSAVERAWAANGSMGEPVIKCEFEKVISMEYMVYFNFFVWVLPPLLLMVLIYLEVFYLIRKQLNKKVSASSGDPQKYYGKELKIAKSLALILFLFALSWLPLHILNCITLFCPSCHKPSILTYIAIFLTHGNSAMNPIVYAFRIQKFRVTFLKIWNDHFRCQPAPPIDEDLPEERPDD
Listed here are compounds together with their documented A1 EC50 as a ratio of that of NECA.
# print the numeric value only

CC(C)n1nnc([C@H]2O[C@@H](n3cnc4c(N[C@H](CO)Cc5ccccc5)nc(N[C@H]5CCNC5)nc43)[C@H](O)[C@@H]2O)n1.O=CO.O=CO [Example 64] :: 21.30

Okay, next one:
Please report the recorded A1 EC50 as a ratio of that of NECA for Cn1nnc(C2OC(n3cnc4c(N)nc(NC(CO)Cc5ccccc5)nc43)C(O)C2O)n1 (stereo not drawn) [Example 37] . 119.1

====

biological target: UniProt P0DMS8; assay: Agonist activity against adenosine 3 receptor (CHO cells, forskolin-enhanced cAMP/SPAP reporter); type: cell-based; details: CHO cells transfected with human receptor; forskolin-enhanced cAMP via SPAP; mean of all the versions tested
Measured A3 EC50 as a ratio of that of NECA, listed per entry.

Here is how some molecules turned out for A3 EC50 as a ratio of that of NECA.
CCn1nnc(C2OC(n3cnc4c(N)nc(NCCc5ccc(S(N)(=O)=O)cc5)nc43)C(O)C2O)n1 (stereo not drawn) [Example 17] :: >346
CCC(CC)Nc1nc(NCCN2CCCCC2)nc2c1ncn2C1OC(c2nnn(C(C)C)n2)C(O)C1O.O=CO.O=CO (stereo not drawn) [Example 68] :: >331
Cn1nnc([C@H]2O[C@@H](n3cnc4c(NCC(c5ccccc5)c5ccccc5)nc(N[C@@H]5CCC[C@H]5O)nc43)[C@H](O)[C@@H]2O)n1.O=CO [Example 96] :: >153
CCn1nnc([C@H]2O[C@@H](n3cnc4c(N)nc(NC5CCCC5)nc43)[C@H](O)[C@@H]2O)n1.O=C(O)C(F)(F)F.O=C(O)C(F)(F)F [Example 12] :: >243
CCn1nnc(C2OC(n3cnc4c(NC5CCCC5)nc(NC(CO)Cc5ccccc5)nc43)C(O)C2O)n1 (stereo not drawn) [Example 71] :: >158

Could you now consider this next molecule?
Short answer please: A3 EC50 as a ratio of that of NECA, UniProt P0DMS8, entry CC(C)n1nnc(C2OC(n3cnc4c(NC(CO)Cc5ccccc5)nc(NCCc5cn(C)cn5)nc43)C(O)C2O)n1 (stereo not drawn) [Example 40] >232
